Measured pIC50, listed per entry for reference.
# Subject Of Test: TNKS2 (Homo sapiens, UniProt Q9H2K2)
# Sequence (Q9H2K2 whole entry): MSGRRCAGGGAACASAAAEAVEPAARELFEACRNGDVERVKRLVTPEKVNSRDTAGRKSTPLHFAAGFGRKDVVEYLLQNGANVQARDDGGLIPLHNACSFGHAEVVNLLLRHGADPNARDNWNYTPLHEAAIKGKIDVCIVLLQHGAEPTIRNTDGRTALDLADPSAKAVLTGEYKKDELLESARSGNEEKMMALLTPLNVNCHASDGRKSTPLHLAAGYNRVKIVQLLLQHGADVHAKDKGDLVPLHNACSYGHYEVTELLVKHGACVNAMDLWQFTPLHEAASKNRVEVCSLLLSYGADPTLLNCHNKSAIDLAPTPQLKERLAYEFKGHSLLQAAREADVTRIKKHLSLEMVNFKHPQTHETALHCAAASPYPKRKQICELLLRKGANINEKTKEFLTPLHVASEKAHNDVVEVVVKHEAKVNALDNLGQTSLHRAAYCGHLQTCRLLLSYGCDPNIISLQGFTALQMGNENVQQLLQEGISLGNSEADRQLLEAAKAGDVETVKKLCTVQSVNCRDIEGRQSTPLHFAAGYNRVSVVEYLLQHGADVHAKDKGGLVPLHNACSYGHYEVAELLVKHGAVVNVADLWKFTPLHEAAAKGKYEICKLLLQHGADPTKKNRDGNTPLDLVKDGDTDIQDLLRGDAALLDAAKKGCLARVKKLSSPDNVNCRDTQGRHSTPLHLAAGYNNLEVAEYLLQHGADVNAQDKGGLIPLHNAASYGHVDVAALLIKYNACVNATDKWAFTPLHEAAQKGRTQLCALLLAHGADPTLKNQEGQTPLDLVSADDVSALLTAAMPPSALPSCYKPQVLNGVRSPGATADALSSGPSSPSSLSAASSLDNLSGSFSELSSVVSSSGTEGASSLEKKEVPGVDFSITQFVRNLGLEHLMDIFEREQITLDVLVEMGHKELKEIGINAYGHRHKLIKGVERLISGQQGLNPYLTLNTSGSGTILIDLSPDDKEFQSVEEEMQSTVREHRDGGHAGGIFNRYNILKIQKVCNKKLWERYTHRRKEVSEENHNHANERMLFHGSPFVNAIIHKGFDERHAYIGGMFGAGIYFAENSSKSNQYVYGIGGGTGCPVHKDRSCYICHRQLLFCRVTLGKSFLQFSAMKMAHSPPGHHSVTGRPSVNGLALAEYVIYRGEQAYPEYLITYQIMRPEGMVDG
Convention used: pIC50 is expressed as -log10 of the molar concentration.

CNC(=O)c1nc[nH]c1C(=O)N[C@H]1CC[C@H](C(=O)Nc2ccc(F)cc2Cl)CC1 : 7.14
Cc1cc(N2CCC[C@]3(CC[C@@H](NC(=O)c4[nH]cnc4C(=O)NC4CC4)CC3)C2=O)c(Cl)cc1F : 6.96
O=C(NCC1CCCO1)c1nc[nH]c1C(=O)N[C@H]1CC[C@H](C(=O)Nc2cc(F)ccc2Cl)CC1 (stereo partly shown) : 7.47

Switching to the query record.
Would you mind telling me what pIC50 value was observed for CNC(=O)c1nc[nH]c1C(=O)N[C@H]1CC[C@H](C(=O)N(C)c2ccc(F)cc2)CC1 ?
6.29
